- Tested on: CCRF-CEM
- runDescription: Tested for inhibition against CEM/MDR (multidrug resistant) cells
- Format: functional, cell-based
- cond: Homo sapiens
The following compounds are shown together with reported IC50 values.

# chemicalString, IC50
records = [
    ("CN(C)CCOc1ccc2c3c(oc2c1)C(=O)c1ccccc1C3=O", "150 nM"),
    ("O=C1c2ccccc2C(=O)c2c1oc1cc(O)cc(O)c21", "600 nM"),
    ("CN(C)CCOc1cc2oc3c(c2cc1Cl)C(=O)c1ccccc1C3=O", "300 nM"),
    ("CN(C)CCCOc1cc2oc3c(c2cc1Cl)C(=O)c1ccccc1C3=O", "150 nM"),
]

// data source = ChEMBL document CHEMBL1127036
